# Tested on: A2780/cp70
# EXPERIMENTAL DETAILS: Inhibition of cell growth, cisplatin resistant A2780/cp70 cell line
# Assay type: cell-based, human
# CONDITION CONTEXT: A2780/cp70 vs A2780
Provide the reported RF A2780/cp70 (IC50 in resistant cell line/IC50 in parent cell line) of each item.
Returns: the value as a bare number; no unit string appended.

So what does the record say about RF A2780/cp70 (IC50 in resistant cell line/IC50 in parent cell line) for CN(C)CCNc1ccc(NCCN2CCCC(Cl)C2)c2c1C(=O)c1c(O)ccc(O)c1C2=O (stereo not shown) [CAQ166M] ?
7

So what does the record say about RF A2780/cp70 (IC50 in resistant cell line/IC50 in parent cell line) for CN(C)CCNc1ccc(NCCN2CCC(Cl)C2)c2c1C(=O)c1c(O)ccc(O)c1C2=O (stereo not shown) [CAQ188M] ?
1.4

So what does the record say about RF A2780/cp70 (IC50 in resistant cell line/IC50 in parent cell line) for CN(C)CCNc1ccc(NCCN2CCC(Cl)CC2)c2c1C(=O)c1c(O)ccc(O)c1C2=O ?
0.9

So what does the record say about RF A2780/cp70 (IC50 in resistant cell line/IC50 in parent cell line) for CN(C)CCNc1ccc(NCCN2C(CCl)CCCC2CCl)c2c1C(=O)c1c(O)ccc(O)c1C2=O (stereo not shown) [CAQ187M] ?
14.9

Where do the numbers come from? From patent US7557215B2.
